Documented Kd across a set of binders
# Tested Target: T1, extracellular domain of rhesus monkey BCMA (rhesus monkey, UniProt F7FFA0 1-53)
# T1 construct: extracellular domain; also called RhBCMA
# T1 sequence (F7FFA0 entry or part of it): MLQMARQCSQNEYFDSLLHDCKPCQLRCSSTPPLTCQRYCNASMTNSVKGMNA
# Assay Method Text: Octet BLI; Fab 200 nM
Give the value, in units of nM, as a plain number.

Use these answered entries as a reference point.
| Binder | Kd (nM) |
| --- | --- |
| AB200-R1a-Fab_VH56 (Fab, V domains shown) VH: QVQLVQSGAEVKKPGSSVKVSCKASGGTFSNYWIHWVRQAPGQGLEWMGATYRGHSDTYYNQKFRGRVTITADKSTSTAYMELSSLRSEDTAVYYCARGTIYHGYDVLDNWGQGTLVTVSS VL: DIQMTQSPSSLSASVGDRVTITCSATQDISNYLNWYQQKPGKAPKLLIYFTSNLQSGVPSRFSGSGSGTDFTLTISSLQPEDFATYYCQQYRKLPWTFGQGTKLEIKR | 18 |
| AB200-R1a-Fab_VH42 (Fab, V domains shown) VH: QVQLVQSGAEVKKPGSSVKVSCKASGGTFSNYWMHWVRQAPGQGLEWMGATYRGHSTTYYNQKFKGRVTITADKSTSTAYMELSSLRSEDTAVYYCARGSIYHGYDVMDNWGQGTLVTVSS VL: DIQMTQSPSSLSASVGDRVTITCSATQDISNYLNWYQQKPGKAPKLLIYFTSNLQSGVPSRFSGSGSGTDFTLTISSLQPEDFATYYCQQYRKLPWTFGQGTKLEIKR | 15.5 |
| AB200-R1a-Fab_VH26 (Fab, V domains shown) VH: QVQLVQSGAEVKKPGSSVKVSCKASGGSFSNYWMHWVRQAPGQGLEWMGATYRIHSDTFYNQKFKGRVTITADKSTSTAYMELSSLRSEDTAVYYCARGAIYHGYDVLDNWGQGTLVTVSS VL: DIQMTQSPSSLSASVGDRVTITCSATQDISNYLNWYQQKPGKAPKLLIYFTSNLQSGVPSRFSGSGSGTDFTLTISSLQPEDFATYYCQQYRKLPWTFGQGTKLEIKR | 2.31 |

Write down Kd measured for item AB200-R1a-Fab_VH31 (Fab, V domains shown) VH: QVQLVQSGAEVKKPGSSVKVSCKASGGTFSNYWMHWVRQAPGQGLEWMGGTYRGHSDTYFNQKFKGRVTITADKSTSTAYMELSSLRSEDTAVYYCARGAIYHGFDVLDNWGQGTLVTVSS VL: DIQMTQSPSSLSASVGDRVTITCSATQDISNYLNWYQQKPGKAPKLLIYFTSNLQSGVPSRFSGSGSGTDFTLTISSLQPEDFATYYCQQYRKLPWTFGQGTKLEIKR
19.2

Write down Kd measured for item AB200-R1a-Fab_VH13 (Fab, V domains shown) VH: QVQLVQSGAEVKKPGSSVKVSCKASGGTFSNYWMHWVRQAPGQGLEWMGATYRGHSTTYYAQKYKGRVTITADKSTSTAYMELSSLRSEDTAVYYCARGAIYHGYDVLDNWGQGTLVTVSS VL: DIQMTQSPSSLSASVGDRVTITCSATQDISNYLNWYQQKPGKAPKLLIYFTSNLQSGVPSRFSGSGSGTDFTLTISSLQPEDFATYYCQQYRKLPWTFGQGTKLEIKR
12.9
